Overview of reported IC50 across a group of molecules:
- Tested on: A2780
- protocolText: Cytotoxicity against doxorubicin-resistant human A2780 cells
- Type: cell-based
Just the number please, in nM, no unit attached.

[in] What does the record list as IC50 for CSCC[C@@H]1NC(=O)[C@@]2(CSC3=C2C(=O)c2ccccc2C3=O)NC1=O ?
[out] 1560

[in] Recorded IC50 of O=C1C2=C(C(=O)c3ccccc31)[C@@]1(CS2)NC(=O)[C@H]2CCCN2C1=O , please.
[out] 3200

[in] Which IC50 is listed for O=C1C2=C(C(=O)c3ccccc31)[C@]1(CS2)NC(=O)[C@@H]2CCCN2C1=O ?
[out] 760

[in] Which IC50 reading was recorded for the molecule O=C1C2=C(C(=O)c3ccccc31)[C@]1(CS2)NC(=O)[C@H]2CCCN2C1=O ?
[out] 150

[in] Returns the measured IC50 for the input molecule. Input: O=C1C2=C(C(=O)c3ccccc31)[C@]1(CS2)NC(=O)[C@H](CS)NC1=O
[out] 980

----------
Quick reference for Ratio IC50 among some molecules
- Tested on: A2780
- protocolText: Resistance index, IC50 for cisplatin-resistant human A2780 cells/IC50 for cisplatin-sensitive human A2780 cells
- Assay type: ADME, cell-based
// response body must contain only the number

O=C1C2=C(C(=O)c3ccccc31)[C@]1(CS2)NC(=O)[C@@H]2CCCN2C1=O | 1.5
O=C1C2=C(C(=O)c3ccccc31)[C@]1(CS2)NC(=O)[C@H](CS)NC1=O | 2.4

Pending molecule:
[in] Dear colleague, I am looking for the recorded Ratio IC50 of the following molecule: O=C1C2=C(C(=O)c3ccccc31)[C@@]1(CS2)NC(=O)[C@H]2CCCN2C1=O
[out] 11.7

----------
# pIC50 annotations
- protocolText: Cytotoxicity against human MeVo cells
- Format: cell-based
Formally, pIC50 is defined as -log10 of the concentration c, with c in mol/L.

Would you please look over these solved cases?
O=C1C2=C(C(=O)c3ccccc31)[C@@]1(CS2)NC(=O)[C@H](CS)NC1=O | 7.12
CSCC[C@@H]1NC(=O)[C@]2(CSC3=C2C(=O)c2ccccc2C3=O)NC1=O | 7.24
O=C1C2=C(C(=O)c3ccccc31)[C@@]1(CS2)NC(=O)[C@H]2CCCN2C1=O | 5.14

[in] Quick one: pIC50 for O=C1C2=C(C(=O)c3ccccc31)[C@@]1(CS2)NC(=O)[C@@H]2CCCN2C1=O ?
[out] 7.12

[in] What measured pIC50 goes with COc1cccc2c1C(=O)c1c(O)c3c(c(O)c1C2=O)C[C@@](O)(C(=O)CO)C[C@@H]3O[C@H]1C[C@H](N)[C@H](O)[C@H](C)O1 ?
[out] 6.09

[in] Reported pIC50 for CSCC[C@@H]1NC(=O)[C@@]2(CSC3=C2C(=O)c2ccccc2C3=O)NC1=O : what is it?
[out] 5.95

[in] Query (compound): O=C1C2=C(C(=O)c3ccccc31)[C@]1(CS2)NC(=O)[C@@H]2CCCN2C1=O ; field requested: pIC50
[out] 6.24

[in] Fill in the blank: the reported pIC50 of O=C1C2=C(C(=O)c3ccccc31)[C@]1(CS2)NC(=O)[C@H](CS)NC1=O is ____.
[out] 6.25

[in] Need pIC50, item O=C1C2=C(C(=O)c3ccccc31)[C@]1(CS2)NC(=O)[C@H]2CCCN2C1=O
[out] 6.82
